Origin of values: patent US20260308173A1

- targetOrSystem: human Werner helicase (Homo sapiens, UniProt Q14191, L1074F)
- Construct: Uniprot Q14191, amino acids 517-1235 with L1074F point mutation; TEV-cleavable 8xHis tag (C, cleaved yes); made in house; host or cells: Sf9 insect cells (baculovirus)
- Sequence (Q14191 with tags, fused parts or gaps L1074F): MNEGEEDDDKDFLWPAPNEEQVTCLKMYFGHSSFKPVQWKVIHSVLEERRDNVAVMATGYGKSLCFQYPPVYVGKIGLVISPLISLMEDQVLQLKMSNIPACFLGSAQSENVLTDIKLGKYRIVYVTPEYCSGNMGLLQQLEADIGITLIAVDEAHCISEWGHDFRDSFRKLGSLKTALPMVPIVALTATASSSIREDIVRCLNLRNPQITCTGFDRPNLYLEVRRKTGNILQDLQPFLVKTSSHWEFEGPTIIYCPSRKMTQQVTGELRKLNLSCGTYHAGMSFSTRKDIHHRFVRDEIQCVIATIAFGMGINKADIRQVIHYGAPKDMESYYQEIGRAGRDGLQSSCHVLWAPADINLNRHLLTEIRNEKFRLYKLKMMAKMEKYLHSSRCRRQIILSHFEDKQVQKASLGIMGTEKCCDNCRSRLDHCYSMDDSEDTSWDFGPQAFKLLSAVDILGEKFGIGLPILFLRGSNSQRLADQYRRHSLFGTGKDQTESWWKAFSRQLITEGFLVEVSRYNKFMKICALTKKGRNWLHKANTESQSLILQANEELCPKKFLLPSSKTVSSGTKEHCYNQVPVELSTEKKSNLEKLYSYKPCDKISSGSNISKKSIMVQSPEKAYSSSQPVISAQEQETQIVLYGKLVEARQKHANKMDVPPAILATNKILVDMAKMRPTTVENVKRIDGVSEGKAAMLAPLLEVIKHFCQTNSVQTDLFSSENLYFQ
- procedureSummary: WRN (BV08) ADP-Glo Assay
- Type: biochemical
- conditionLabel: WRN-BV08 (517-1235 L1074F) 0.15 nM, 0.1 nM DNA duplex, ATP, 15 min preincubation, 60 min at 25° C, pH 7.5; read-out: ADP-Glo_hWRN_IC50
pIC50: −log10 of the molar value.
Quick list: pIC50 per entry.
observationType: pIC50

1. CCc1c(N2CCN(C(=O)c3ncnc(C)c3O)CC2)c(=O)c2oc(-c3ccnc(OC)c3)nc2n1CC(=O)NC12CC(C(F)(F)F)(C1)C2 :: 7.30 to 8.30
2. CCc1c(N2CCN(C(=O)c3ncnc(C)c3O)CC2)c(=O)c2nc(-c3ccnc(OC)c3)oc2n1CC(=O)NC12CC(C(F)(F)F)(C1)C2 :: 7.30 to 8.30
3. CCc1c(N2CCN(C(=O)c3ncnc(C)c3O)CC2)c(=O)c2nc(-c3ccnc(OC)c3)oc2n1CC(=O)Nc1ccc(C(F)(F)F)cc1Cl :: ≥ 8.30
4. CCc1c(N2CCN(C(=O)c3ncnc(C)c3O)CC2)c(=O)c2oc(-c3ccnc(OC)c3)nc2n1CC(=O)Nc1ccc(C(F)(F)F)cc1Cl :: ≥ 8.30
5. CCc1c(N2CCN(C(=O)c3c(O)ccc4ncoc34)CC2)c(=O)c2oc(-c3ccnc(OC)c3)nc2n1CC(=O)Nc1ccc(C(F)(F)F)cc1Cl :: ≥ 8.30

----------
- targetOrSystem: p21 (Homo sapiens)
- Construct: p21 in-cell western after 24 h, GAPDH normalised
- procedureSummary: Effect on p21 induction in HCT116 cells
- conditionLabel: HCT116 colon carcinoma cells, 24 h, p21/GAPDH ratio, percent activation vs internal reference WRN inhibitor; read-out: P21_EC50
pEC50: −log10 of the molar value.
Listed below: pEC50 values for each entry.
observationType: pEC50

1) CCc1c(N2CCN(C(=O)c3ncnc(C)c3O)CC2)c(=O)c2nc(-c3ccnc(OC)c3)oc2n1CC(=O)Nc1ccc(C(F)(F)F)cc1Cl :: ≥ 6.30
2) CCc1c(N2CCN(C(=O)c3ncnc(C)c3O)CC2)c(=O)c2oc(-c3ccnc(OC)c3)nc2n1CC(=O)Nc1ccc(C(F)(F)F)cc1Cl :: ≥ 6.30
3) CCc1c(N2CCN(C(=O)c3ncnc(C)c3O)CC2)c(=O)c2oc(-c3ccnc(OC)c3)nc2n1CC(=O)NC12CC(C(F)(F)F)(C1)C2 :: 5.30 to 5.70
4) CCc1c(N2CCN(C(=O)c3ncnc(C)c3O)CC2)c(=O)c2nc(-c3ccnc(OC)c3)oc2n1CC(=O)NC12CC(C(F)(F)F)(C1)C2 :: < 5.30
5) CCc1c(N2CCN(C(=O)c3c(O)ccc4ncoc34)CC2)c(=O)c2oc(-c3ccnc(OC)c3)nc2n1CC(=O)Nc1ccc(C(F)(F)F)cc1Cl :: ≥ 6.30
